Test system: CAOV3
test-name: Primary qHTS to identify gynecologic anti-cancer compounds using libraries of approved drugs and bioactive compounds (AID 1345084); further: nearly all actives have a fitted effect of over 55% in size
condition-description: Gynecologic cancer cell panel viability, ATPlite luminescence, 48 h; series mostly up to 57.5 µM
Results filed as inconclusive are left out. The source made the active and inactive calls. The call rests on the fitted dose curve; in most records, active means well fitted cell-killing curve with a large enough effect; inconclusive means small, poorly fitted or top-dose-only effect, or effect the other way; inactive means flat fitted curve, though single readings scatter.
Tick one outcome: true (active), false (inactive)

*Q* Hi, sorry to bother you, what did the test record for `CS(=O)(=O)c1ccc([C@H](CC2CCCC2)C(=O)Nc2nccs2)cc1` ?
*A* false

*Q* Lookup CC(C)(O)CC(CO)NC(=O)CC(O)CC(=O)Cc1ccccc1 (centres undefined)
*A* false

*Q* Lookup CC1(C)CC[C@]2(C(=O)O)CC[C@]3(C)C(=CCC4[C@@]5(C)C[C@@H](O)[C@H](O)C(C)(C)C5CC[C@]43C)C2C1 (some centres undefined)
*A* false

*Q* Lookup `COc1c/c(=C2\C=c3ccccc3=N2)[nH]/c1=C\c1[nH]c(C)cc1C`
*A* true

*Q* Lookup `COc1ccc2c(OC)c3ccoc3nc2c1OC`
*A* false

*Q* Lookup C=C1CCC2C(C)(C(=O)O)CCCC2(C)C1CC/C(=C\CO)CO (centres undefined)
*A* false

*Q* Lookup `COc1ccc(Cl)c(Nc2nc3ccccc3nc2NS(=O)(=O)c2cccc(NC(=O)C(C)(C)N)c2)c1`
*A* false

*Q* Lookup COc1cc(O)c([C@@H](CC(=O)N2CC(C)CC(C)C2)c2ccc3c(c2)OCO3)c(OC)c1 (some centres undefined)
*A* false

*Q* Lookup COc1c2c(c(C)c3c1C(=O)OC3)OC1(C)CC(O)C34OC(OC)(OC3(C)C)C(O)CC4(C)C1C2 (centres undefined)
*A* false

====

Tested on: JEG-3
test-name: Primary qHTS to identify gynecologic anti-cancer compounds using libraries of approved drugs and bioactive compounds (AID 1345084); further: nearly all actives have a fitted effect of over 55% in size; on activity change, negative = cytotoxicity: on the % scale 0 is the no-effect control and ±100 the full control effect
condition-description: Gynecologic cancer cell panel viability, ATPlite luminescence, 48 h; series mostly up to 57.5 µM
Records with an inconclusive call do not appear. Calls of active or inactive are those of the source. The call rests on the fitted dose curve; in most records, active means well fitted cell-killing curve with a large enough effect; inconclusive means small, poorly fitted or top-dose-only effect, or effect the other way; inactive means flat fitted curve, though single readings scatter.
measurement-name: activity change, negative = cytotoxicity

These solved cases illustrate the format of a correct answer.
compound | activity change, negative = cytotoxicity
COCC1OC(OC(C)(C)C2CCC3(C)C=C(C4CCC5C4(C)CC(O)C4OC(C(C)(C)OC6OC(CO)C(O)C(O)C6NC(C)=O)CCC45C)CCC3O2)C(NC(C)=O)C(O)C1O (stereo not drawn) | 3.33% [at 11.6 µM] (inactive)
CC1(C)CC[C@]2(C(=O)O)CC[C@]3(C)C(=CCC4[C@@]5(C)CC[C@H](O[C@@H]6O[C@H](CO)[C@@H](O)[C@H](O)[C@H]6O[C@@H]6O[C@H](CO)[C@@H](O)[C@H](O)[C@H]6O)[C@@](C)(CO)C5CC[C@]43C)[C@@H]2C1 (stereo partly drawn) | inactive
O=C(Cc1ccc(-c2ccccc2)cc1)NC1CCC1 | inactive
C=CC1C(OC2OC(CO)C(O)C(O)C2O)OC=C(C(=O)OC)C1CC(=O)OCC1C(C)C(O)CC1C(CO)COC(=O)CC1C(C(=O)O)=COC(OC2OC(CO)C(O)C(O)C2O)/C1=C\C (stereo not drawn) | 0.819% [at 11.6 µM] (inactive)
CCC[C@@H]1O[C@@H]2C[C@H]3[C@@H]4CCC5=CC(=O)C=C[C@]5(C)[C@H]4[C@@H](O)C[C@]3(C)[C@]2(C(=O)CO)O1 | inactive

*Q* Could you share which activity change, negative = cytotoxicity value was measured for `COc1cccc(Nc2ncnn3ccc(CN4CC[C@@H](N)[C@H](O)C4)c23)c1` ?
*A* inactive

*Q* Lookup C/C=C(\C)C(=O)O[C@@H]1CC2[C@@H](CC=C3C[C@@H](O[C@H]4C[C@H](OC)[C@H](O[C@H]5C[C@H](OC)[C@H](O[C@@H]6O[C@H](C)[C@@H](O[C@H]7C[C@H](OC)[C@H](O[C@@H]8O[C@H](CO)[C@@H](O)[C@H](O)[C@H]8O)[C@@H](C)O7)[C@H](OC)[C@H]6O)[C@@H](C)O5)[C@@H](C)O4)CC[C@@]32C)[C@@]2(O)CC[C@H](C(C)=O)[C@@]12C (stereo partly drawn)
*A* -4.6% [at 6.55 µM] (inactive)

*Q* Lookup CC1(CCOC2OC(CO)C(O)C(O)C2O)CCC23OC2(C1)C(O)CC1C(C)(C(=O)O)CCCC13C (stereo not drawn)
*A* inactive

*Q* Lookup `CCOCc1nc2c(N)nc3ccccc3c2n1CC(C)(C)O`
*A* inactive

*Q* Lookup `OC[C@H]1O[C@@H](OC[C@H]2O[C@@H](OC/C=C/c3ccccc3)[C@H](O)[C@@H](O)[C@@H]2O)[C@@H](O)[C@@H]1O`
*A* inactive

*Q* Lookup `COc1cc2ncnc(Nc3cccc(O)c3)c2cc1OC`
*A* inactive

*Q* Lookup Cn1c(=O)cc(N2CCCC(N)C2)n(Cc2cc(F)ccc2C#N)c1=O (stereo not drawn)
*A* inactive

*Q* Lookup CC1=C(C(=O)OCc2ccccc2)C(c2ccc(-c3ccccc3)cc2)NC(=O)N1CCCCCC(=O)O (stereo not drawn)
*A* inactive
